Item-by-item account of ED50
system: Bombyx mori; test: Induction of precocious metamorphosis-inducing activity against fourth-instar larvae of Bombyx mori Shunrei x shogetsu compound treated topically; type: functional
State just the number; it will be interpreted in µg.

Guide cases for ED50, answers given:
> print(dat)
                   compound  experimental.system  reading.unit  test.value
1  CCCc1ccc(OCCCn2ccnc2)cc1          Bombyx mori            µg          16
2   CCc1ccc(OCCCn2ccnc2)cc1          Bombyx mori            µg          17

From here, focus on the item given below.
Consider the compound `CCCCCCCCOc1ccc(-n2ccnc2)cc1` and give its recorded ED50.
40
